# Tested System: ZmDRIK1 (DROUGHT RESPONSIVE INACTIVE KINASE 1), kinase domain (Zea mays)
# Construct: gene ZEAMMB73_Zm00001d028770; ZmDRIK1-KD R187-S514 (kinase domain)
# Sequence (C0P4K9 187-514): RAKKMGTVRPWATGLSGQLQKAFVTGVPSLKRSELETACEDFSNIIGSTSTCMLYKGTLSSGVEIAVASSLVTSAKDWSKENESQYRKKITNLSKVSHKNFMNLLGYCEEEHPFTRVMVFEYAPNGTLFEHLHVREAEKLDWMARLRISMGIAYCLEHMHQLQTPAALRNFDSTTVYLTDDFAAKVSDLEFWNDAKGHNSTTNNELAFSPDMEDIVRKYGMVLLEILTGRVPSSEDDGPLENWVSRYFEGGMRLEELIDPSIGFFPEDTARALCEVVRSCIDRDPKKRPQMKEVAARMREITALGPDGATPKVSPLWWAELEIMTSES
# Assay Notes: biochemical
# Condition Context: read-out: dTm B, sheet ZmDRIK1-R187-S514;; DSF, Boltzmann fit, 0.1% DMSO
Below is a list of entries, each paired with its recorded ΔTm at 10 µM value.
# number only, unit °C dropped from output

Sample answers from the record:
Query string: Find the recorded ΔTm at 10 µM belonging to CN1CCN(c2nc(C3=C(c4c[nH]c5ccccc45)C(=O)NC3=O)c3ccccc3n2)CC1 and report it.
Result string: -0.541

Query string: # get_value(readout='ΔTm at 10 µM', item= Cc1cc(C)nc(NS(=O)(=O)c2ccc(NC(=S)NC(=O)COc3ccc(Br)cc3Cl)cc2)n1 )
Result string: -1.01

***
Query string: Could you tell me which ΔTm at 10 µM is on file for CCOc1cc(N2CCC(O)CC2)ccc1Nc1ncc2c(n1)N(C)c1ccccc1C(=O)N2C ?
Result string: -0.666

Query string: Reported ΔTm at 10 µM for O=C(NOCC(O)CO)c1cc(Br)c(F)c(F)c1Nc1ccc(I)cc1F (stereo not shown) : what is it?
Result string: -0.924

Query string: Item under review: C[C@@H]1COC(Nc2ccc3ncnc(Nc4ccc(OCc5nccs5)c(Cl)c4)c3c2)=N1 . Reported ΔTm at 10 µM?
Result string: -0.97

Query string: Which ΔTm at 10 µM reading was recorded for the compound CCCCCCCCCCCCc1ccc(S(=O)(=O)Nc2nncs2)cc1 ?
Result string: -1.24

Query string: Could you share which ΔTm at 10 µM value was measured for COc1cc(CCc2cc(NC(=O)c3ccc(N4C[C@@H](C)N[C@@H](C)C4)cc3)n[nH]2)cc(OC)c1 ?
Result string: 0.239

* * *

# Tested System: ZmDRIK1-K217-P492 (Zea mays, UniProt C0P4K9)
# Construct: kinase domain, K217-P492
# Sequence (C0P4K9 1-514): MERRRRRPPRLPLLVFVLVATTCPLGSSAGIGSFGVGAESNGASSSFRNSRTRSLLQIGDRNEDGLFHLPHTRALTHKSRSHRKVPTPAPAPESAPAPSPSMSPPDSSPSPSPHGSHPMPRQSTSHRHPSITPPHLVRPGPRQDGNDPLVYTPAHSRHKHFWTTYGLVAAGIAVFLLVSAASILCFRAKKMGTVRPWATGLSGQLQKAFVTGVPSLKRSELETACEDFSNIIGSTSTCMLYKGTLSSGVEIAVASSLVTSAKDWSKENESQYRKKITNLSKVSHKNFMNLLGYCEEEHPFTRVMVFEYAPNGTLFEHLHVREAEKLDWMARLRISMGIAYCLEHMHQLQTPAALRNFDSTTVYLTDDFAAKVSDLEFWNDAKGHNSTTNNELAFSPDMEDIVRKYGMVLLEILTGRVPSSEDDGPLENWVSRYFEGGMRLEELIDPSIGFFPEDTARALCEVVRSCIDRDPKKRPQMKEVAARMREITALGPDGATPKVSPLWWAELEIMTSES
# Assay Notes: biochemical
# Condition Context: read-out: dTm B, sheet ZmDRIK1-K217-P492;; DSF, Boltzmann fit, 0.1% DMSO
Examples of compounds with documented ΔTm at 10 µM follow.
Quick note: give the figure in °C, leave out the unit.

Guide cases for ΔTm at 10 µM, answers given:
Query string: Quick one: ΔTm at 10 µM of COc1cc(CCc2cc(NC(=O)c3ccc(N4C[C@@H](C)N[C@@H](C)C4)cc3)n[nH]2)cc(OC)c1 [AZD4547] ?
Result string: 0.194

Query string: Reported ΔTm at 10 µM, compound CN1CCN(c2ccc(OC(F)(F)F)c(Nc3ncc4c(n3)-c3c(c(C(N)=O)nn3CCO)CC4)c2)CC1 [NMS-P937 (NMS1286937)] : ____
Result string: -1.1

Continuing:
Query string: So what does the record say about ΔTm at 10 µM for Cc1c(NC(=O)c2ccc(C(C)(C)C)cc2)cccc1-c1cn(C)c(=O)c(Nc2ccc(C(=O)N3CCOCC3)cc2)n1 [CGI1746] ?
Result string: -1.51
